test: Ultraviolet absorption spectrum; type: physicochemical; conditions: ethanol solution, 10 ppm, quartz cell, optical path 10 mm
Assignment: determine reported Wavelength at the maximum absorption (λ max) for the given compounds.
Answers are plain numbers, in nm.

Entry C=Cc1ccc(CN(N=CC=Cc2ccccc2)C(=S)NC)cc1 has what Wavelength at the maximum absorption (λ max)?
335

Entry C=Cc1ccc(CN(N=Cc2cccs2)C(=S)NC)cc1 has what Wavelength at the maximum absorption (λ max)?
333

Entry C=Cc1ccc(CN(N=Cc2ccc(C=CC(=O)O)cc2)C(=S)NC)cc1 has what Wavelength at the maximum absorption (λ max)?
348

Entry C=Cc1ccc(CN(N=Cc2ccc(C(=O)O)cc2)C(N)=O)cc1 has what Wavelength at the maximum absorption (λ max)?
306

Entry C=Cc1ccc(C(=O)CC(=O)c2ccc(C(=O)O)cc2)cc1 has what Wavelength at the maximum absorption (λ max)?
361

Below is a list of compounds. For each, state its recorded Wavelength at the maximum absorption (λ max).
1. C=Cc1ccc(CNC(=S)N(C)N=Cc2ccc(C(=O)O)cc2)cc1
2. C=Cc1ccc(CN(N=Cc2ccc([N+](=O)[O-])cc2)C(=S)NC)cc1
3. C=Cc1ccc(CN(N=Cc2ccc(Cl)cc2)C(=S)NC)cc1

332
359
318

Entry C=Cc1ccc(CN(N=Cc2ccc(C(=O)O)cc2)C(=O)NC)cc1 has what Wavelength at the maximum absorption (λ max)?
310

###

Assignment: determine reported Molar extinction coefficient (ε) for the given molecules.
experiment: Ultraviolet absorption spectrum; type: physicochemical; conditions: ethanol solution, 10 ppm, quartz cell, optical path 10 mm

Consider the reported Molar extinction coefficient (ε) for these molecules:
Entry C=Cc1ccc(CN(N=Cc2ccc(C=CC(=O)O)cc2)C(=S)NC)cc1 [Example 3] has what Molar extinction coefficient (ε)?
60,000

Entry C=Cc1ccc(CN(N=Cc2ccncc2)C(=S)NC)cc1 [Example 13] has what Molar extinction coefficient (ε)?
36,000

Entry C=Cc1ccc(CNC(=S)N(C)N=Cc2ccc(C(=O)O)cc2)cc1 [Example 2] has what Molar extinction coefficient (ε)?
40,000

Entry C=Cc1ccc(CN(N=Cc2cccs2)C(=S)NC)cc1 [Example 12] has what Molar extinction coefficient (ε)?
39,000

Entry C=Cc1ccc(C(=O)CC(=O)c2ccc(C(=O)O)cc2)cc1 [Example 57, 4-carboxy-4'-vinyldibenzoylmethane] has what Molar extinction coefficient (ε)?
34,000

Below is a list of molecules. For each, state its recorded Molar extinction coefficient (ε).
1. C=Cc1ccc(CN(N=Cc2ccc(Cl)cc2)C(=S)NC)cc1 [Example 9]
2. C=Cc1ccc(CN(N=Cc2ccccc2)C(=S)NC)cc1 [Example 6]
3. C=Cc1ccc(C(=O)CC(=O)c2ccc(C(=O)OC)cc2)cc1
4. C=Cc1ccc(CN(N=Cc2ccc(C(=O)O)cc2)C(=O)NC)cc1 [Example 5]
5. C=Cc1ccc(CN(N=Cc2ccc(C)cc2)C(=S)NC)cc1 [Example 7]
6. C=Cc1ccc(CN(N=Cc2ccco2)C(=S)NC)cc1 [Example 11]

41,000
33,000
33,000
29,000
33,000
34,000

###

Assignment: determine reported Wavelength at the maximum absorption (λ max) for the given molecules.
Assay: Ultraviolet absorption spectrum
Format: physicochemical
Details: ethanol solution, 10 ppm, quartz cell, optical path 10 mm
Text: The wavelength at the maximum absorption (λ max) and the molar extinction coefficient (E) were found by measuring ultraviolet absorption spectrum of an ethanol solution of the sample having a concentration of 10 ppm in a quartz cell having an optical path of 10 mm by means of a spectrophotometer (UV-200S, made by SHIMADZU CORPORATION).
Answers are plain numbers, in nm.

Consider the reported Wavelength at the maximum absorption (λ max) for these molecules:
Entry C=Cc1ccc(CN(N=Cc2ccco2)C(=S)NC)cc1 [Example 11] has what Wavelength at the maximum absorption (λ max)?
321

Entry C=Cc1ccc(CN(N=Cc2ccc(N(C)C)cc2)C(=S)NC)cc1 [Example 8] has what Wavelength at the maximum absorption (λ max)?
358

Entry C=Cc1ccc(CN(N=Cc2ccc(C(=O)O)cc2)C(=S)NC)cc1 [Example 1] has what Wavelength at the maximum absorption (λ max)?
331

Entry C=Cc1ccc(CN(N=Cc2ccc(C)cc2)C(=S)NC)cc1 [Example 7] has what Wavelength at the maximum absorption (λ max)?
317

Entry C=Cc1ccc(CN(N=Cc2ccncc2)C(=S)NC)cc1 [Example 13] has what Wavelength at the maximum absorption (λ max)?
325

Entry C=Cc1ccc(C(=O)CC(=O)c2ccc(C(=O)OC)cc2)cc1 has what Wavelength at the maximum absorption (λ max)?
361

Attention now shifts to the item below.
Entry C=Cc1ccc(CN(N=Cc2ccccc2)C(=S)NC)cc1 [Example 6] has what Wavelength at the maximum absorption (λ max)?
317

###

test: Ultraviolet absorption spectrum; assay type: physicochemical; conditions: ethanol solution, 10 ppm, quartz cell, optical path 10 mm
Assignment: determine reported Molar extinction coefficient (ε) for the given molecules.

Entry C=Cc1ccc(CN(N=Cc2ccc(C(=O)O)cc2)C(N)=O)cc1 [Example 4] has what Molar extinction coefficient (ε)?
29,000

Entry C=Cc1ccc(CN(N=CC=Cc2ccccc2)C(=S)NC)cc1 [Example 14] has what Molar extinction coefficient (ε)?
46,000

Entry C=Cc1ccc(CN(N=Cc2ccc(C(=O)O)cc2)C(=S)NC)cc1 [Example 1] has what Molar extinction coefficient (ε)?
33,000

Entry C=Cc1ccc(CN(N=Cc2ccc(N(C)C)cc2)C(=S)NC)cc1 [Example 8] has what Molar extinction coefficient (ε)?
38,000

---
Entry C=Cc1ccc(CN(N=Cc2ccc([N+](=O)[O-])cc2)C(=S)NC)cc1 [Example 10] has what Molar extinction coefficient (ε)?
36,000
